Test system: HOP-92 NSCLC
assay_method_text: NCI-60 one-dose screen, 48 h (100 = growth as untreated, 0 = no growth, -100 = all killed)
cond: 10 µM unless noted
The panel holds about 83,000 compounds, 20% with a hit somewhere; the sample as a whole holds those more often.
// label = 1.0 if growth is not less than 50%, otherwise 0.0

[
  {
    "record_smiles": "C=C1C(=O)O[C@H]2[C@H]1CC/C(Cn1cc(-c3ccccc3C(F)(F)F)nn1)=C\\CC[C@@]1(C)O[C@@H]21",
    "label_class": 0.0
  },
  {
    "record_smiles": "COc1ccc(-c2cn[nH]c2-c2cc(OC)c3c(c2)OCCO3)cc1",
    "label_class": 0.0
  },
  {
    "record_smiles": "Nc1nc(-c2ccccc2)cs1",
    "label_class": 1.0
  },
  {
    "record_smiles": "CCOC(=O)CC(C#N)(CC(=O)OCC)C(=O)OCC",
    "label_class": 1.0
  },
  {
    "record_smiles": "COc1ccc(/C=C/C(=O)c2cccc(B(O)O)c2)cc1O",
    "label_class": 0.0
  },
  {
    "record_smiles": "O=C(O)Cc1ccc2c(c1)Cc1cccnc1O2",
    "label_class": 1.0
  },
  {
    "record_smiles": "O=S(=O)(NCCNc1cc(-c2cn(-c3ccccc3)nc2-c2ccccc2)ccn1)c1ccc(F)cc1",
    "label_class": 0.0
  },
  {
    "record_smiles": "O=C(O)c1ccc(-n2c(=O)c3ccccc3c3ccccc3c2=O)cc1",
    "label_class": 1.0
  },
  {
    "record_smiles": "COc1cc(NS(C)(=O)=O)ccc1Nc1c2ccc([N+](=O)[O-])cc2nc2c(C)cccc12",
    "label_class": 0.0
  }
]

====

Tested on: PC-3 prostate
assay_method_text: NCI-60 one-dose screen, 48 h (100 = growth as untreated, 0 = no growth, -100 = all killed)
cond: 10 µM unless noted
Description: Growth inhibition of the PC-3 human tumor cell line is measured as a screen for anti-cancer activity. Cells are grown in 96 well plates and exposed to the test compound for 48 hours. Compounds are tested at a single concentration, which is 10^-5 M for most compounds. The reported endpoint is percent growth (GI% or GIPRCNT), where numbers from 0 - 100% represent growth inhibition, and numbers from -100% - 0 represent cell death. For example, a value of 40 represents 60% growth inhibition. […]
This is part of a sample that, as a whole, favours compounds with a hit. Of some 83,000 tested, about 20% had one in any assay.

[
  {
    "molecule": "CC1=NN2C(=NC3=C(CCC/C3=C\\c3ccc(Cl)cc3)C2c2ccc(Cl)cc2)S1 (stereo unspecified)",
    "growth / %": 95.3
  },
  {
    "molecule": "CCCCCC/C=C\\CCCCCCCCOc1ccc(CCOP(=O)(O)OCC[N+](C)(C)C)cc1",
    "growth / %": 14.8
  },
  {
    "molecule": "COc1cc(C2C3=C(COC3=O)Nc3c2ccc2c3CCCC2)cc2c1OCO2 (stereo unspecified)",
    "growth / %": 31.7
  },
  {
    "molecule": "CCOC(=O)CC/C(C)=N\\Nc1ccc([N+](=O)[O-])cc1",
    "growth / %": 49.7
  },
  {
    "molecule": "COc1ccc(NC(=S)/N=c2\\oc3c(OC)cccc3cc2-c2cc3ccccc3[nH]2)cc1",
    "growth / %": 58.4
  },
  {
    "molecule": "O=C1CCC(=O)N1Cc1ccccc1",
    "growth / %": 100
  }
]
